- assay.system: CDC34
- measurement.description: reporter assay of Huesken 2005
- conditions.used: siRNA
Oligonucleotides are given in HELM: sugar(base)linkage, 5' to 3'; d 2'-deoxyribose, r ribose, m 2'-O-methylribose, p phosphate. ss, as = sense and antisense strand
Give measured normalised inhibition (eCFP-eYFP dual reporter) for each item. Keep answers brief.
A number alone suffices; assume %.

Query: # query: normalised inhibition (eCFP-eYFP dual reporter) of entry "RNA1{r(A)p.r(C)p.r(U)p.r(A)p.r(C)p.r(G)p.r(A)p.r(G)p.r(G)p.r(G)p.r(C)p.r(G)p.r(G)p.r(C)p.r(U)p.r(A)p.r(C)p.r(U)p.r(U)p.d(T)p.d(T)}|RNA2{r(A)p.r(A)p.r(G)p.r(U)p.r(A)p.r(G)p.r(C)p.r(C)p.r(G)p.r(C)p.r(C)p.r(C)p.r(U)p.r(C)p.r(G)p.r(U)p.r(A)p.r(G)p.r(U)p.d(A)p.d(G)}$$$RNA1{StrandType:ss}|RNA2{StrandType:as}$"
Reply: 73.7

Query: # query: normalised inhibition (eCFP-eYFP dual reporter) of entry "RNA1{r(G)p.r(G)p.r(A)p.r(A)p.r(G)p.r(C)p.r(A)p.r(G)p.r(G)p.r(U)p.r(C)p.r(C)p.r(U)p.r(G)p.r(G)p.r(G)p.r(G)p.r(A)p.r(C)p.d(T)p.d(T)}|RNA2{r(G)p.r(U)p.r(C)p.r(C)p.r(C)p.r(C)p.r(A)p.r(G)p.r(G)p.r(A)p.r(C)p.r(C)p.r(U)p.r(G)p.r(C)p.r(U)p.r(U)p.r(C)p.r(C)p.d(G)p.d(G)}$$$RNA1{StrandType:ss}|RNA2{StrandType:as}$"
Reply: 58.4

Query: # query: normalised inhibition (eCFP-eYFP dual reporter) of entry "RNA1{r(A)p.r(G)p.r(C)p.r(A)p.r(A)p.r(G)p.r(G)p.r(G)p.r(G)p.r(A)p.r(A)p.r(G)p.r(G)p.r(A)p.r(U)p.r(C)p.r(G)p.r(G)p.r(G)p.d(T)p.d(T)}|RNA2{r(C)p.r(C)p.r(C)p.r(G)p.r(A)p.r(U)p.r(C)p.r(C)p.r(U)p.r(U)p.r(C)p.r(C)p.r(C)p.r(C)p.r(U)p.r(U)p.r(G)p.r(C)p.r(U)p.d(C)p.d(T)}$$$RNA1{StrandType:ss}|RNA2{StrandType:as}$"
Reply: 41.2

###

- assay.system: UBE2C
- measurement.description: reporter assay of Huesken 2005
- conditions.used: siRNA
Oligonucleotides are written 5' to 3', each unit as a sugar letter and its base; * is a phosphorothioate linkage, no mark a phosphodiester; rarer units and linkages stand in square brackets, end groups in braces. Plain capitals give the bases only. d = 2'-deoxy (DNA); r = 2'-OH (RNA)
Label fulfilled when normalised inhibition (eCFP-eYFP dual reporter) is at or above 80%; otherwise label not fulfilled.

Query: Does the reported normalised inhibition (eCFP-eYFP dual reporter) for sense rArCrCrCrArGrGrGrUrArArCrArUrArUrGrCrCdTdT / antisense rGrGrCrArUrArUrGrUrUrArCrCrCrUrGrGrGrUdGdT fall at or above the 80% mark?
Reply: not fulfilled

Query: Does the reported normalised inhibition (eCFP-eYFP dual reporter) for sense rCrGrCrUrArGrArGrUrUrCrCrCrCrArGrUrGrGdTdT / antisense rCrCrArCrUrGrGrGrGrArArCrUrCrUrArGrCrGdAdG fall at or above the 80% mark?
Reply: fulfilled

Query: Does the reported normalised inhibition (eCFP-eYFP dual reporter) for sense rUrGrArArCrArCrArCrArUrGrCrUrGrCrCrGrAdTdT / antisense rUrCrGrGrCrArGrCrArUrGrUrGrUrGrUrUrCrAdAdG fall at or above the 80% mark?
Reply: fulfilled

Query: Does the reported normalised inhibition (eCFP-eYFP dual reporter) for sense rArCrGrUrGrGrArCrArCrCrCrArGrGrGrUrArAdTdT / antisense rUrUrArCrCrCrUrGrGrGrUrGrUrCrCrArCrGrUdTdG fall at or above the 80% mark?
Reply: fulfilled

Query: Does the reported normalised inhibition (eCFP-eYFP dual reporter) for sense rCrUrArUrCrArCrCrCrCrArArCrGrUrGrGrArCdTdT / antisense rGrUrCrCrArCrGrUrUrGrGrGrGrUrGrArUrArGdCdA fall at or above the 80% mark?
Reply: not fulfilled

Query: Does the reported normalised inhibition (eCFP-eYFP dual reporter) for sense rCrUrUrCrUrArGrGrArGrArArCrCrCrArArCrAdTdT / antisense rUrGrUrUrGrGrGrUrUrCrUrCrCrUrArGrArArGdGdC fall at or above the 80% mark?
Reply: fulfilled

Query: Does the reported normalised inhibition (eCFP-eYFP dual reporter) for sense rArCrCrArUrCrCrArUrGrGrArGrCrArGrCrUrGdTdT / antisense rCrArGrCrUrGrCrUrCrCrArUrGrGrArUrGrGrUdCdC fall at or above the 80% mark?
Reply: not fulfilled

Query: Does the reported normalised inhibition (eCFP-eYFP dual reporter) for sense rArGrUrGrGrCrUrArCrCrCrUrUrArCrArArUrGdTdT / antisense rCrArUrUrGrUrArArGrGrGrUrArGrCrCrArCrUdGdG fall at or above the 80% mark?
Reply: not fulfilled

Query: Does the reported normalised inhibition (eCFP-eYFP dual reporter) for sense rArCrArUrCrCrUrGrArArGrGrArArArArGrUrGdTdT / antisense rCrArCrUrUrUrUrCrCrUrUrCrArGrGrArUrGrUdCdC fall at or above the 80% mark?
Reply: not fulfilled

Query: Does the reported normalised inhibition (eCFP-eYFP dual reporter) for sense rGrCrCrUrUrCrUrArGrGrArGrArArCrCrCrArAdTdT / antisense rUrUrGrGrGrUrUrCrUrCrCrUrArGrArArGrGrCdTdC fall at or above the 80% mark?
Reply: fulfilled

Entry source: the OligoGym collection
